- experimental_target: Human GPR120 short form (Homo sapiens, UniProt Q5NUL3)
- Construct: expressed in transfected cells
- Sequence (Q5NUL3 whole entry): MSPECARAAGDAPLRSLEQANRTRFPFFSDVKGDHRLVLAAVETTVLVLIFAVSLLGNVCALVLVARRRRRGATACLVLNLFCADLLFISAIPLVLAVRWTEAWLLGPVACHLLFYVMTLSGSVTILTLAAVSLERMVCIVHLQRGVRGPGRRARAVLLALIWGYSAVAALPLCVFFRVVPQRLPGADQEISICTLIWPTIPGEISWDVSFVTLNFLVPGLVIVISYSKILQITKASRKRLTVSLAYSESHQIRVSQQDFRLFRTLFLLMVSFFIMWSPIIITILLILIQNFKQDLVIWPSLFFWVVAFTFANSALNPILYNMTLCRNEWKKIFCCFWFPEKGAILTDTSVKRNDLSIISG
- measurement_description: Human GPR120 calcium flux assay (FLIPR), Procedure Calcium A
- Type: cell-based
- protocol_conditions: HEK-293 cells expressing human GPR120 short form, 2500 cells/well; read-out: GPR120 Ca2+ Assay A EC50
# log10(EC50) values compiled below
All values: log10 EC50 [nM].

// known answers, use as guide
>  <compound>
CCc1ccc(-c2nsc(C(F)(F)F)c2COc2c(F)cc(CC(C)CO)cc2F)cc1 (stereo not drawn)

>  <log10(EC50)>
2.83

$$$$
>  <compound>
Cc1c(CCCO)ccc(OCc2sc(Cl)cc2-c2ccc(Cl)cc2)c1C

>  <log10(EC50)>
2.42

$$$$
>  <compound>
COc1ccc(-c2nsc(C(F)(F)F)c2COc2ccc(CCC(=O)O)c(C)c2C)cc1

>  <log10(EC50)>
1.76

$$$$
>  <compound>
Cc1c(CCC(=O)O)ccc(OCc2c(-c3ccc(Cl)cc3)csc2C(F)(F)F)c1C

>  <log10(EC50)>
2.44

$$$$

## Input log10(EC50) lookup needed for Cc1snc(-c2ccc(Cl)cc2)c1COc1ccc(CCC(=O)O)c(F)c1F , thanks.
## Output 2.03

## Input Record: COc1ccc(-c2nsc(C(F)(F)F)c2COc2c(F)cc(CCC(=O)O)cc2F)cc1
## Output 1.88

###

- experimental_target: long form of human GPR120 (Homo sapiens)
- Sequence (Q5NUL3 1-377 isoform Q5NUL3-1): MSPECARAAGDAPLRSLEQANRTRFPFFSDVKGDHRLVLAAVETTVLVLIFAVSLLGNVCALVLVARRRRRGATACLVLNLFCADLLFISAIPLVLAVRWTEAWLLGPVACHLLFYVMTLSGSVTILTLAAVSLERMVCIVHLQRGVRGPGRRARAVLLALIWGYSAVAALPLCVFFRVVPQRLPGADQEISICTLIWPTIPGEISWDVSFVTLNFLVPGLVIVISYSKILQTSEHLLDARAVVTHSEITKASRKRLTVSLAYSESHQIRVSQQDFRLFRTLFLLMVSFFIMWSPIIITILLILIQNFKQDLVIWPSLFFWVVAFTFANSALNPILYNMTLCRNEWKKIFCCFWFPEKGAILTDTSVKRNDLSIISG
- Sequence (P32121 whole entry partner): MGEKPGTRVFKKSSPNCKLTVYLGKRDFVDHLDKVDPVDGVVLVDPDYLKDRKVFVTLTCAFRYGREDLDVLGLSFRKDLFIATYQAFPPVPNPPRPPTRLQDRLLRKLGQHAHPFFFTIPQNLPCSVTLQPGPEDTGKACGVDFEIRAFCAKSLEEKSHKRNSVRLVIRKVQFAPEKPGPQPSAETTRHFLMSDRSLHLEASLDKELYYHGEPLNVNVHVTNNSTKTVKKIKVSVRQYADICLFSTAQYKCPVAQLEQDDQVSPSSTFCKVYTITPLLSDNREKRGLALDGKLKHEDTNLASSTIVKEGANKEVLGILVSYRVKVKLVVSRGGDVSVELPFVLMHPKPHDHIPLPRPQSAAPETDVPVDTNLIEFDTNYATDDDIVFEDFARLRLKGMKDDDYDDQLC
- measurement_description: Human GPR120 DiscoveRx PathHunter Beta-Arrestin assay, Procedure β-arrestin A
- protocol_conditions: PathHunter CHO-K1 GPR120 β-Arrestin cell line, 3000 cells per well, read-out: hGPR120 β-arrestin A EC50
assay_metric: EC50 (nM)
Give just the numeric value; nM need not be written.

>  <compound>
O=C(O)CCc1ccc(OCc2c(-c3ccc(Cl)cc3)nsc2C(F)(F)F)c(F)c1F

>  <EC50 (nM)>
98

$$$$
>  <compound>
CCc1ccc(-c2nsc(C(F)(F)F)c2COc2c(F)cc(CC(C)CO)cc2F)cc1 (stereo not shown)

>  <EC50 (nM)>
466

$$$$
>  <compound>
CCc1ccc(-c2nsc(C(F)(F)F)c2COc2c(F)cc(CCCO)c(F)c2F)cc1

>  <EC50 (nM)>
90

$$$$

Below: the item to evaluate.
## Input Dear colleague, I am looking for the recorded EC50 of the following compound: COc1ccc(-c2nsc(C(F)(F)F)c2COc2c(F)cc(CCC(=O)O)cc2F)cc1
## Output 91

###

- experimental_target: Human GPR120 short form (Homo sapiens, UniProt Q5NUL3)
- Construct: expressed in transfected cells
- measurement_description: Human GPR120 calcium flux assay (FLIPR), Procedure Calcium B
- Assay type: cell-based
- protocol_conditions: HEK-293 cells expressing human GPR120 short form, 4200 cells/well; read-out: GPR120 Ca2+ Assay B EC50
assay_metric: pEC50
Note on units: pEC50 is unitless, being -log10 of a concentration expressed in mol/L.

The cases that follow already have their pEC50 on record.
>  <molecule>
Cc1ccc(-c2snc(Cl)c2COc2ccc(CCC(=O)O)c(C(F)(F)F)c2)c(C)c1

>  <pEC50>
6.01

$$$$
>  <molecule>
OCCCc1cc(F)c(OCc2c(-c3ccc(Cl)cc3F)nsc2C(F)(F)F)c(F)c1

>  <pEC50>
6.86

$$$$
>  <molecule>
CC(Cc1cc(F)c(OCc2c(-c3ncc(Cl)cc3F)nsc2C(F)(F)F)c(F)c1)C(=O)O (stereo not drawn)

>  <pEC50>
6.61

$$$$
>  <molecule>
Cc1cc(OCc2c(Cl)nsc2-c2ccccc2C)ccc1CCC(=O)O

>  <pEC50>
5.97

$$$$
>  <molecule>
Cc1c(CCC(=O)O)ccc(OCc2c(-c3cnc(Cl)s3)nsc2C(F)(F)F)c1C

>  <pEC50>
6.71

$$$$
>  <molecule>
Cc1cc(OCc2c(-c3ccc(Cl)cc3)nsc2C(F)(F)F)c(F)cc1CCCO

>  <pEC50>
6.70

$$$$
>  <molecule>
Cc1ccccc1-c1snc(Cl)c1COc1ccc(CCC(=O)O)cc1

>  <pEC50>
6.40

$$$$
>  <molecule>
Cc1cc(OCc2c(-c3ccc(Cl)cc3)nsc2C(F)(F)F)ccc1CCC(=O)O

>  <pEC50>
5.95

$$$$

Let's switch to this molecule now.
## Input Which value of pEC50 has been reported for N#Cc1ccc(-c2nsc(C(F)(F)F)c2COc2c(F)cc(CCC(=O)O)cc2F)cc1 in the records?
## Output 6.17
